Exercise: for every item that follows, state its recorded Cmax.
assay: Pharmacokinetics in mice, plasma; format: in vivo, C57BL/6 mice; details: male, C57BL/6; mouse plasma, oral, 10 mg/kg; read-out: Cmax
Where a name gives a salt, the structure may show the parent alone.
Give bare numbers, in ng/mL.

Some entries whose results are on file:
>>> recorded_measurement("CCN(C)CCc1c[nH]c2ccc(F)cc12 [Compound 4, hydrochloride]")
272
>>> recorded_measurement("CCN(C)CCc1c[nH]c2ccccc12")
102

Proceeding to the next compound to report its Cmax.
Q. // Cmax lookup, key: "CCCN(CC)CCc1c[nH]c2ccccc12"
A. 20.3

* * *

assay: Pharmacokinetics in mice, plasma; type: in vivo, C57BL/6 mice; details: male, C57BL/6; mouse plasma, IV, 10 mg/kg
Counter-ions that a name gives are not always drawn.
Exercise: for every item that follows, state its recorded half-life.
Give bare numbers, in h.

>>> recorded_measurement("CCCN(CC)CCc1c[nH]c2ccccc12 [Compound 1, ethylpropyltryptamine]")
1.9
>>> recorded_measurement("CCN(C)CCc1c[nH]c2ccc(F)cc12 [Compound 4, hydrochloride]")
0.86

Proceeding to the next compound to report its half-life.
Q. // half-life lookup, key: CCN(C)CCc1c[nH]c2ccccc12 [Compound 2, methylethyltryptamine]
A. 1.48

* * *

biological target: UniProtKB P08908; test: FLIPR Ca2+ flux agonist assay, 5-HT1A; format: cell-based; settings: Ca2+ flux, CHO cells; read-out: 5-HT1A EC50
Measure name: pEC50
Numbers only, as −log10 of the molar value.

Q. // map CCN(C)CCc1c[nH]c2cccc(O)c12 [Compound 6] to recorded pEC50 (system: UniProtKB P08908)
A. 4.83

* * *

assay: Pharmacokinetics in rats, brain; type: in vivo, Sprague Dawley rats; details: male, Sprague Dawley; rat brain, SC, 10 mg/kg
Structures can show the parent of a compound that is named as a salt.
Measure name: Cmax (ng/g)
Answers are plain numbers, in ng/g.

Some entries whose results are on file:
>>> recorded_measurement("CN(C)CCc1c[nH]c2ccc(F)cc12 [Compound 5, hydrochloride]")
275
>>> recorded_measurement("CCN(C)CCc1c[nH]c2cccc(O)c12")
6160

Proceeding to the next molecule to report its Cmax.
Q. // Cmax lookup, key: CCN(C)CCc1c[nH]c2ccc(F)cc12 [Compound 4, hydrochloride]
A. 2480

* * *

Exercise: for every item that follows, state its recorded Tmax.
Assay: Pharmacokinetics in mice, brain
Type: in vivo, C57BL/6 mice
Conditions: male, C57BL/6; mouse brain, SC, 1 mg/kg
Experimental: Animals. Male C57BL/6 mice, aged 8-12 weeks, were used in these studies. Four mice were housed in each cage. […] Temperature and humidity were recorded by an auto-controlled data logger system. […] Drugs. […] They were then administered intravenously (IV) via the tail vein, subcutaneously (SC), or orally (PO) via gavage at a dose of 1 or 10 mg/kg (calculated based on the free base) and at a volume of 5 ml/kg body weight. […]
Counter-ions that a name gives are not always drawn.
Give bare numbers, in min.

>>> recorded_measurement("CN(C)CCc1c[nH]c2ccc(F)cc12 [Compound 5, hydrochloride]")
4.8

Proceeding to the next molecule to report its Tmax.
Q. // Tmax lookup, key: CCN(C)CCc1c[nH]c2ccc(F)cc12 [Compound 4, hydrochloride]
A. 15
